# Tested on: Ctenocephalides felis
# Experiment Summary: Parasiticidal activity against Ctenocephalides felis assessed as mortality after 24 hrs by cat flea assay
# Format: functional
# Design: concentration or dose not given beside the values

Smiles Notation: C/C(=N\OCC1CCCCC1)c1cc(Cl)ccc1NS(=O)(=O)C(F)(F)F
Activity, %: 96

Smiles Notation: C/C(=N\Oc1ccc(Cl)cc1)c1cc(Cl)ccc1NS(=O)(=O)C(F)(F)F
Activity, %: 90

Smiles Notation: CO/N=C(\C)c1cc(Cl)ccc1NS(=O)(=O)C(F)(F)F
Activity, %: 100

Smiles Notation: C/C(=N\OC1CCCCC1)c1ccc(C(F)(F)F)cc1NS(=O)(=O)C(F)(F)F
Activity, %: 4

Smiles Notation: CCO/N=C(\C)c1ccc(F)cc1NS(=O)(=O)C(F)(F)F
Activity, %: 100

Smiles Notation: CC/C(=N\OCc1ccc(C(F)(F)F)cc1)c1cc(Cl)ccc1NS(=O)(=O)C(F)(F)F
Activity, %: 98

Smiles Notation: CC/C(=N\Oc1ccc(Cl)c(Cl)c1)c1cc(Cl)ccc1NS(=O)(=O)C(F)(F)F
Activity, %: 99

Smiles Notation: CC/C(=N\OC(C)(C)C)c1cc(Cl)ccc1NS(=O)(=O)C(F)(F)F
Activity, %: 100

Smiles Notation: C/C(=N\OC1CCCC1)c1cc(Cl)ccc1NS(=O)(=O)C(F)(F)F
Activity, %: 100

Smiles Notation: CCC/C(=N\Oc1ccc(F)cc1)c1cc(Cl)ccc1NS(=O)(=O)C(F)(F)F
Activity, %: 36

* * *

Documented Activity across a set of compounds
# Tested on: Rhipicephalus sanguineus
# Experiment Summary: Parasiticidal activity against Rhipicephalus sanguineus assessed as mortality after 24 hrs by brown dog tick assay
# Type: functional
# Design: concentration or dose not given beside the values
Measured Attribute: Activity (%)

Smiles Notation: CC/C(=N\OCc1ccc(Cl)cc1)c1cc(Cl)ccc1NS(=O)(=O)C(F)(F)F
Readout Unit: %
Meas Value: 83
--
Smiles Notation: CC(C)/C(=N\Oc1ccc(Cl)cc1)c1cc(Cl)ccc1NS(=O)(=O)C(F)(F)F
Readout Unit: %
Meas Value: 65
--
Smiles Notation: C/C(=N\OC(C)C)c1cc(Cl)ccc1NS(=O)(=O)C(F)(F)F
Readout Unit: %
Meas Value: 95

* * *

Known Activity of a selection of compounds
# System: Rhipicephalus sanguineus
# Experiment Summary: Parasiticidal activity against Rhipicephalus sanguineus assessed as mortality after 24 hrs by brown dog tick assay
# Assay type: functional
# Parameters: concentration or dose not given beside the values

Smiles Notation: CC/C(=N\OCc1ccc(C(F)(F)F)cc1)c1cc(Cl)ccc1NS(=O)(=O)C(F)(F)F
Activity, %: 90

Smiles Notation: CC/C(=N\OCC(F)(F)F)c1cc(Cl)ccc1NS(=O)(=O)C(F)(F)F
Activity, %: 80

Smiles Notation: CCO/N=C(\C)c1cc(Br)ccc1NS(=O)(=O)C(F)(F)F
Activity, %: 100

Smiles Notation: C/C(=N\OC1CCCC1)c1cc(Cl)ccc1NS(=O)(=O)C(F)(F)F
Activity, %: 100

* * *

# System: Ctenocephalides felis
# Experiment Summary: Parasiticidal activity against Ctenocephalides felis assessed as mortality after 24 hrs by cat flea assay
# Type: functional
# Design: concentration or dose not given beside the values
The entries below come with measured Activity values attached.

Smiles Notation: C/C(=N\OC(C)C)c1cc(Cl)ccc1NS(=O)(=O)C(F)(F)F
Activity: 100%

Smiles Notation: C=CCO/N=C(\CC)c1cc(Cl)ccc1NS(=O)(=O)C(F)(F)F
Activity: 100%

Smiles Notation: CC/C(=N\OC1CCCCC1)c1cc(Cl)ccc1NS(=O)(=O)C(F)(F)F
Activity: 100%
